Data origin: ChEMBL document CHEMBL3988442

Provide the recorded Percent Effect for the entries that follow.
- subject-of-test: Chromo domain-containing protein 1 (Saccharomyces cerevisiae (strain ATCC 204508 / S288c) (Baker's yeast)) (UniProt P32657)
- Sequence (P32657 whole entry, the tested form may be a part): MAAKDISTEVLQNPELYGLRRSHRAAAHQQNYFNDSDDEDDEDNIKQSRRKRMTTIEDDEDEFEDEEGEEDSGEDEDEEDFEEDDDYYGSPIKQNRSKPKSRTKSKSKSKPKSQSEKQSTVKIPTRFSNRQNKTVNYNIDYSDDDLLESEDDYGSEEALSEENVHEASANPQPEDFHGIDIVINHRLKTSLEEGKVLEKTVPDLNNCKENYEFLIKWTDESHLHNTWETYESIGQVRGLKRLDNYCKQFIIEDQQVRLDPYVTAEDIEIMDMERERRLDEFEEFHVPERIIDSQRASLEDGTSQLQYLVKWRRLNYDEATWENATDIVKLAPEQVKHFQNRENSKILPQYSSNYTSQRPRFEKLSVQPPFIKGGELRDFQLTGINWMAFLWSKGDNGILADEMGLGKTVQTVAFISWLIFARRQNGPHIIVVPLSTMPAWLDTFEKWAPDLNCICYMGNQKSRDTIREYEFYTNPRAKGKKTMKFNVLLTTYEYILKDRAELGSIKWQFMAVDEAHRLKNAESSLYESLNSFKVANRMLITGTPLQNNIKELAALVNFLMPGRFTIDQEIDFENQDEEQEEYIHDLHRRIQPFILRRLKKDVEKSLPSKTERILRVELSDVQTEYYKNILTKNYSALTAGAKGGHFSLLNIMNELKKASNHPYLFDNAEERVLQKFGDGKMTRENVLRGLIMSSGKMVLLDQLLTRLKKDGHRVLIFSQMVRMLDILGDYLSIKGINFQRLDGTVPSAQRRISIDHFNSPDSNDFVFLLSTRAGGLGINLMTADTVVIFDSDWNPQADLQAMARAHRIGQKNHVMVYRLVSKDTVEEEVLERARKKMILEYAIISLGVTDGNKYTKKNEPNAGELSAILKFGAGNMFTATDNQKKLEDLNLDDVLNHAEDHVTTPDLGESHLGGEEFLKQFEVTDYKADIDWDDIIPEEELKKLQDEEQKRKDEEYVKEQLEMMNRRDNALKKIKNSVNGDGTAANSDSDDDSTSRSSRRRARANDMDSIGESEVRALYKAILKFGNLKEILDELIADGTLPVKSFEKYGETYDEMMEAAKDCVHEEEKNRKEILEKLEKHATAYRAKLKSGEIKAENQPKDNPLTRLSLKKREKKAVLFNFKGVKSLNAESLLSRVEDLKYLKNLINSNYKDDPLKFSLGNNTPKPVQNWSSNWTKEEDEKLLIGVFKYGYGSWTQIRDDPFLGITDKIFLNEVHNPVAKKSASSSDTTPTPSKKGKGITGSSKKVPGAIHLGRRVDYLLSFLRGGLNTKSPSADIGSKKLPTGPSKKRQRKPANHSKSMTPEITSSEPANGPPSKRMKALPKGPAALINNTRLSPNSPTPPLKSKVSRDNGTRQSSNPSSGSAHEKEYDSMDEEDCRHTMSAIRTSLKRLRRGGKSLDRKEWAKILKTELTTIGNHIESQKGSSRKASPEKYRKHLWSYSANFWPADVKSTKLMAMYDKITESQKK
- protocol-notes: ScCHD-1 Enzyme Inhibition Assay
- Type: functional
- Set-up: scale not given: in the data most compounds retested in dose-response had high values
- measurement-context: 30 µM
The answer is to be given in %; state only the numeric part.

In: Name the reported Percent Effect value associated with the compound CN1N=C(C(=O)Nc2cc(F)ccc2OCC2CCCO2)CCC1=O (centres undefined)
Out: -8.4

In: Name the reported Percent Effect value associated with the compound Cc1nc(C2CCCN2CC(=O)NCCOc2ccccc2)no1 (centres undefined)
Out: -12.7

In: Name the reported Percent Effect value associated with the compound CC(C)CC(=O)N1CCN(C(=O)N(C)C)CC2(CC(=O)N(C)C2)C1 (centres undefined)
Out: -3.69

In: Name the reported Percent Effect value associated with the compound c1cnc(-c2nc(CN3CCCC(Cn4cncn4)C3)cs2)nc1 (centres undefined)
Out: -4.11

In: Name the reported Percent Effect value associated with the compound Cc1ccc(CC(=O)N2CC[C@@H]3CN(CCN(C)C)CCO[C@@H]3C2)cc1
Out: -4.03

In: Name the reported Percent Effect value associated with the compound O=S(=O)(Cc1ccccc1)NCC1CCN(c2cnccn2)CC1
Out: -7.97

In: Name the reported Percent Effect value associated with the compound CCCc1noc(CCC(=O)N2CCCC2c2noc(C3CC3)n2)n1 (centres undefined)
Out: -2.93

In: Name the reported Percent Effect value associated with the compound CN1CCC(CCNC(=O)c2ccc(N(C)S(C)(=O)=O)cc2Cl)CC1
Out: 2.38

In: Name the reported Percent Effect value associated with the compound CN(Cc1cn2c(n1)CN(C(=O)CC1CC1)CC2)Cc1ccco1
Out: -0.584

In: Name the reported Percent Effect value associated with the compound CC(C)c1noc(CCC(=O)NC(C)c2nnc3n2CCCCC3)n1 (centres undefined)
Out: 80

In: Name the reported Percent Effect value associated with the compound NC(=O)C1CCCN1Cc1cccc(NC(=O)c2ccsc2)c1 (centres undefined)
Out: -10.5

In: Name the reported Percent Effect value associated with the compound CC(C)CCOCCNC(=O)Nc1cc(C(F)(F)F)c[nH]c1=O
Out: 7.34

In: Name the reported Percent Effect value associated with the compound COc1c(CNC2CCOc3ccccc32)c(C(C)C)nn1C (centres undefined)
Out: -6.55

In: Name the reported Percent Effect value associated with the compound CC(NC(=O)NCCOc1ccc(F)c(F)c1)c1nncn1C (centres undefined)
Out: -12.3

In: Name the reported Percent Effect value associated with the compound O=C(CN1CCCC(Cn2cncn2)C1)NCc1ccco1 (centres undefined)
Out: 4.31

In: Name the reported Percent Effect value associated with the compound CN(C(=O)c1cccc2[nH]ncc12)C1CCN(c2ccccn2)CC1
Out: -18.1

In: Name the reported Percent Effect value associated with the compound Cc1csc2c(N3CCC(NCCCc4ccncc4)CC3)ncnc12
Out: -2.5

In: Name the reported Percent Effect value associated with the compound CCCc1noc(CCC(=O)NC(C)c2nnc3n2CCCCC3)n1 (centres undefined)
Out: -5.75

In: Name the reported Percent Effect value associated with the compound O=C(NCCCn1cncn1)NCC(c1ccco1)N1CCCCC1 (centres undefined)
Out: -13.7

In: Name the reported Percent Effect value associated with the compound CNC(=O)c1nc2c(s1)CCN(C(=O)Cc1ccc(OC)cc1)CC2
Out: 1.61

In: Name the reported Percent Effect value associated with the compound Cn1nc2c(cc1=O)CN(CCc1nc3ccccc3c(=O)[nH]1)CC2
Out: -7.87

In: Name the reported Percent Effect value associated with the compound Cc1cc(CN(C)C(=O)c2cccc(N3CCCC3=O)c2)no1
Out: -4.16

In: Name the reported Percent Effect value associated with the compound CCn1nc(C)c(CCn2ccnc2-c2cc3n(n2)CCCNC3)c1C
Out: -6.3

In: Name the reported Percent Effect value associated with the compound CN(CC(=O)N1CCN(c2ncccn2)CC1)c1ccc(Cl)cn1
Out: -1.14

In: Name the reported Percent Effect value associated with the compound O=C1NCCCCC1Sc1nnc(C2CC2)n1C1CC1 (centres undefined)
Out: -13.5

In: Name the reported Percent Effect value associated with the compound CCCn1cc(C(=O)N(C)Cc2nc(-c3ccccn3)no2)c(C)n1
Out: -5.18

In: Name the reported Percent Effect value associated with the compound CCOC(=O)N1CCC(C(=O)c2cc(F)ccc2F)CC1
Out: -0.881

In: Name the reported Percent Effect value associated with the compound OC(COc1ccccc1)CN1CCC(c2ccn[nH]2)CC1 (centres undefined)
Out: -2.28

In: Name the reported Percent Effect value associated with the compound CCCn1nc2c(cc1=O)CN(Cc1cc(C)on1)CC2
Out: -7.36

In: Name the reported Percent Effect value associated with the compound CC(COc1ccccc1)NCc1nc(-c2cccnc2)no1 (centres undefined)
Out: -2.08

In: Name the reported Percent Effect value associated with the compound COc1cc(C)nc(N2CCN(C(=O)c3ccc[nH]3)CC2)n1
Out: -10.1

In: Name the reported Percent Effect value associated with the compound O=C(c1ccsc1)N1CC(C(=O)N2CCOCC2)C2(CCOCC2)C1 (centres undefined)
Out: -0.146

In: Name the reported Percent Effect value associated with the compound CC(NC(=O)N(C)Cc1ccsc1)c1ccc2c(c1)CCC(=O)N2 (centres undefined)
Out: -3.52

In: Name the reported Percent Effect value associated with the compound CCOCC1CN(Cc2ccoc2)Cc2nn(CC3CC3)cc21 (centres undefined)
Out: 0.75
